The entries below are paired with their reported pKd.
target: T1, recombinant cynomolgus CFD, His-tagged (cynomolgus); test: SPR MX96
T1 construct: also called rcyCFD-His; recombinant Cyno-CFD
Quick note: pKd means taking -log10 of the concentration in moles per liter.

// worked examples, pKd included
### Prompt Quick one: pKd of KCD139 (antibody, V domains shown) VH: EVQLQQSGAELVRPGSSVKMSCKTSGYTFTSYGINWVKQRPGQGLEWIGYIYIANGYTENNEKFKGKAKLTSDISSSTAYMQLSSLTSEDSAIYFCARRFDYAGALDYWGQGTSVTVSS VL: DIVLTQSPASLAVSLGQRATISCRASESVDSYGNSFMHWYQQKPGQPPKLLIHRASNLESGIPARFSGSGSRTDFTLTINPVEADDVAIYYCQQTNDDPYTFGGGTNLEIK ?
### Response 8.42

### Prompt Name the reported pKd value associated with the binder KCD114 (antibody, V domains shown) VH: EVQLQQSGPELVKPGASVKISCKASGYSFTAYYMNWVKQSPEKSLEWIGDINPSTGGTTYNQNFKAKATLTVDKSSSTAYMHLKSLTSEDSAVYYCATTYYSGNSYVGFAYWGQGTLVTVSA VL: DIVMTQSHKFMSTSVGDRVSITCKASQDVSTAVAWYQQKPGQSPKLLIFWASTRHTGVPDRFTGSGSGTDYTLTISSVQAEDLALYYCQQHYSTPWTFGGGTKLEIK
### Response 8.08

Now for the binder whose pKd we want.
### Prompt # get_value(readout='pKd', item= KCD225 (antibody, V domains shown) VH: QVQLQQSGPELVKPGASVKISCKASGYTFTDYYINWMKQRPGQGLEWIGWIFPGSDSTYYNEKFKGKATLTVDKSSSTAYMLLSSLTSEDSAVYFCARLGYYSHSYYAMDYWGQGTSVTVSS VL: DIQMTQSPASLSVSTGETVTITCRASENIYSNLAWFQQKQGKSPQLLVYAATNLADGVPSRFSGSGSGTQYSLKITSLQSEDFGSYYCQHFWGTPLTFGAGTKLDLK )
### Response 7.34
